Tested on: adjuvant arthritis in rats
PROTOCOL_DETAILS: Mycobacterium smegmatis induced adjuvant arthritis in rats (contralateral/left hind paw oedema, systemic phase)
Assay type: in vivo, male Lewis rats
PROTOCOL_CONDITIONS: Mycolicibacterium smegmatis, ip, 600 h; Table 2; left hind paw oedema; 10 mg/kg i.p.; day 25; read-out: % inhibition vs. controls, day 25
Experimental: Mycobacterium smegmatis induced adjuvant arthritis in rats Adjuvant arthritis is induced in groups of 10-30 male Lewis rats, weighing 150 g, by injecting 75 μg of M. smegmatis in 50 μl of mineral oil into the plantar surface of the right hind foot pad. […] The volume of the controlateral (systematic phase) hind foot pad is measured pletismographically on days 18, 21 and 25.
compounds and their reported inhibition in vivo at 10 mg/kg

COMPOUND | TESTED_TARGET | UNIT_STRING | inhibition in vivo at 10 mg/kg
N#CC(C(=O)Nc1ccccc1)C(=O)c1nn(-c2ccccc2)c2c1Cc1ccc(F)cc1-2 (stereo not drawn) | adjuvant arthritis in rats | % | 50
N#CC(C(=O)Nc1ccc(F)cc1)C(=O)c1nn(-c2ccc(F)cc2)c2c1Cc1ccccc1-2 (stereo not drawn) | adjuvant arthritis in rats | % | 44
CC(C)(C)OC(=O)c1cccc2c1SCc1c(C(=O)C(C#N)C(=O)Nc3ccccc3)nn(-c3ccccc3)c1-2 (stereo not drawn) | adjuvant arthritis in rats | % | 34
N#CC(C(=O)Nc1ccccc1)C(=O)c1nn(-c2ccccc2)c2c1Cc1ccccc1-2 (stereo not drawn) | adjuvant arthritis in rats | % | 58
N#CC(C(=O)Nc1ccccc1)C(=O)c1nn(-c2ccccc2)c2c1COc1ccccc1-2 (stereo not drawn) | adjuvant arthritis in rats | % | 41
N#CC(C(=O)Nc1ccccc1)C(=O)c1nn(-c2ccccc2)c2c1Cc1c(CN3CCOCC3)cccc1-2 (stereo not drawn) | adjuvant arthritis in rats | % | 54

====

Test system: adjuvant arthritis in rats
PROTOCOL_DETAILS: Mycobacterium smegmatis induced adjuvant arthritis in rats (contralateral/left hind paw oedema, systemic phase)
Type: in vivo, male Lewis rats
PROTOCOL_CONDITIONS: Table 2; left hind paw, systemic phase; 10 mg/kg i.p.; day 25

COMPOUND | Oedema volume ± S.E., day 25, mm^3
N#CC(C(=O)Nc1ccc(F)cc1)C(=O)c1nn(-c2ccc(F)cc2)c2c1Cc1ccccc1-2 (stereo not drawn) | 683
N#CC(C(=O)Nc1ccccc1)C(=O)c1nn(-c2ccccc2)c2c1Cc1c(CN3CCOCC3)cccc1-2 (stereo not drawn) | 562
N#CC(C(=O)Nc1ccccc1)C(=O)c1nn(-c2ccccc2)c2c1COc1ccccc1-2 (stereo not drawn) | 717
CC(C)(C)OC(=O)c1cccc2c1SCc1c(C(=O)C(C#N)C(=O)Nc3ccccc3)nn(-c3ccccc3)c1-2 (stereo not drawn) | 812
N#CC(C(=O)Nc1ccccc1)C(=O)c1nn(-c2ccccc2)c2c1Cc1ccccc1-2 (stereo not drawn) | 512
N#CC(C(=O)Nc1ccccc1)C(=O)c1nn(-c2ccccc2)c2c1Cc1ccc(F)cc1-2 (stereo not drawn) | 612

Origin of values: patent US5196445A
